Header: IC50 / Tyrosine-protein phosphatase non-receptor type 2 (Homo sapiens) / multiple publications

// below: answered molecules
{"MOLECULE": "O=C1CN(c2c(O)ccc(-c3cc(C4CC4(F)F)no3)c2F)S(=O)(=O)N1 (centres unmarked)", "IC50": "≤ 1 µM"}
{"MOLECULE": "N#Cc1ccc(-n2cnc(-c3ccc(O)c(N4CC(=O)NS4(=O)=O)c3F)c2)cc1", "IC50": "≤ 1 µM"}

Look at each molecule and report its IC50.
1. Cn1c(=O)c(NCCC#N)cc2cc(N3CC(=O)NS3(=O)=O)c(O)cc21
2. CC(C)n1cnc(-c2ccc(O)c(N3CC(=O)NS3(=O)=O)c2F)c1
3. O=C1CN(c2c(O)ccc(-c3cnn(CC4CCOCC4)c3)c2F)S(=O)(=O)N1
4. C[C@@H]1C[C@@]1(F)COc1cc(C(N)=O)cc2c(Br)c(C(F)(F)P(=O)(O)O)sc12
5. NC(=O)c1cc(OCc2cccc3ccccc23)c2sc(C(F)(F)P(=O)(O)O)c(Br)c2c1
6. O=C1CN(c2c(O)ccc(-c3cc(C4CCOC4)n[nH]3)c2F)S(=O)(=O)N1 (centres unmarked)

Output line:
≤ 1 µM
≤ 1 µM
≤ 1 µM
0.108 µM
0.124 µM
≤ 1 µM
